molecular target: HLA-A*33:01; experiment: IEDB peptide-MHC binding, purified MHC/competitive/radioactivity; filed as Kd, often an IC50 or EC50 that approximates it; bounds were set here for any values at or beyond the usual limits of such assays; settings: source organism: Mammarenavirus brazilense
pKd: −log10 of the molar value.
REPORTED METRIC: pKd

Tell me pKd reported for IMAYVNQAH
≤ 4.44

Respond only with pKd recorded for VTLDFTKFH
≤ 4.24

Entry FIMAYVNQAH needs its pKd filled in; supply it.
4.84

---

target: HLA-B*27:05; assay: IEDB peptide-MHC binding, purified MHC/direct/fluorescence; filed as Kd, often an IC50 or EC50 that approximates it; bounds were set here for any values at or beyond the usual limits of such assays; settings: source organism: Yersinia enterocolitica
REPORTED METRIC: Kd

Recall and state the measured Kd for GYGRVNAGK .
≥ 20 µM
